- STUDY_SYSTEM: T1, soluble human insulin receptor-immunoglobulin heavy chain chimera (sIR-Fc; Bass et al., 1996) (human, UniProt P06213 28-956, limits assumed)
- T1 construct: extracellular domain; also called soluble IR (Bass construct); not shown: immunoglobulin heavy chain constant domains
- EXPERIMENTAL_PROTOCOL: phage ELISA
// reported IR/IGF-1R comparison for each item listed

Recorded IR/IGF-1R comparison, per entry:
[
  {
    "BINDER": "SSIGGGFHENFYDWFSRQLSQSPPLK [H2CA-4-F7-IGFR]",
    "IR/IGF-1R comparison": 0.2
  },
  {
    "BINDER": "LRRQAPVEENFYDWFVRQVSGDRVGG [H2CA-3-D7-IGFR]",
    "IR/IGF-1R comparison": 0.3
  }
]

Please examine the following record next.
Problem: Record request: IR/IGF-1R comparison value, item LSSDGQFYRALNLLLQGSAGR [20E2B-2-B7-IGFR]
Result: 0.1
